Each record here notes measured normalized growth.
# Protocol notes: chemical genetic growth profiling, strain panel (AID 1159580);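 further: tested at 20 µM; growth read once vehicle control cultures reached saturation at 30 °C; 1 = growth at the plate median or of vehicle wells; lower values mean less growth of the strain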
# Condition parameters: S. cerevisiae deletion strains, growth OD, locus YHR142W, strain chs7, hits give low values
Among all 5,500 compounds or so, about 2,000 (36%) were called active. Roughly 18% stayed inconclusive and do not appear here. The list shows a part of the results.
Hey, just send me the number, nothing else.

{"columns": ["Molecule", "Endpoint label", "Recorded result"],
 "data": [
  ["COc1cc2c(c(OC)c1OC)-c1ccc(OC)c(=O)cc1[C@@H](NC(C)=O)CC2", "normalized growth", 0.996],
  ["CN(C)CCOc1ccc(/C(=C(/CCCl)c2ccccc2)c2ccccc2)cc1", "normalized growth", 0.0764],
  ["CN(C)CCOC(C)(c1ccccc1)c1ccccn1 (stereo unspecified)", "normalized growth", 1.03],
  ["CCN(CC)CCOc1ccc2c(c1)C(=O)c1cc(OCCN(CC)CC)ccc1-2", "normalized growth", 0.99],
  ["O[N+]1=CC=CCC1=S.On1ccccc1=S.[Zn]", "normalized growth", 0.0777]
]}

// moving on: another record for normalized growth
### Prompt normalized growth for "CCN(CC)CCOc1ccc(/C(=C(\Cl)c2ccccc2)c2ccccc2)cc1" ?
### Response 0.08

====

# Protocol notes: chemical genetic growth profiling, strain panel (AID 1159580)
# Condition parameters: S. cerevisiae deletion strains, growth OD, locus YLR320W, strain mms22, hits give low values
Among all 5,500 compounds or so, about 2,000 (36%) were called active. Inconclusive results (about 18%) are left out. This is one part of the list.
So basically, if normalized growth comes in under 1 it's Fulfilled, and if it's 1 or more it's Not fulfilled.

# count of solved cases: 2
{"columns": ["Compound", "Assigned label"],
 "data": [
  ["Nc1ncnc2c1ncn2C1C[C@H](O)[C@@H](CO)O1 (stereo partly specified)", "Not fulfilled"],
  ["Nc1ncnc2c1ncn2[C@@H]1O[C@H](CO)[C@@H](O)[C@H]1O", "Fulfilled"]
]}

### Prompt Lab note: confirm whether the reported normalized growth for this compound is below 1, equality not counting. compound: "O=C(O)c1ccccc1Nc1cccc(C(F)(F)F)c1"
### Response Fulfilled

====

# Protocol notes: chemical genetic growth profiling, strain panel (AID 1159580)
# Condition parameters: S. cerevisiae deletion strains, growth OD, locus YJL095W, strain BCK1, hits give low values
About 2,000 (36%) of roughly 5,500 compounds were called active. Not shown: some 18% with an inconclusive outcome. The list shows a part of the results.
Endpoint label: normalized growth
Format: numeric value only, no unit, no commentary.

Answered examples (9):
{"columns": ["Compound", "normalized growth"],
 "data": [
  ["CC(=O)Oc1ccc(Cl)c2cccnc12", 0.0546],
  ["CN[C@H]1C[C@@H](N)[C@H](O)[C@@H](O[C@@H]2O[C@H](CO)[C@@H]3OC4(O[C@@H]3[C@@H]2O)O[C@H](C(N)CO)[C@H](O)[C@H](O)[C@H]4O)[C@@H]1O (stereo not given in full)", 1.05],
  ["C1CNCCN1", 1.01],
  ["O=[N+]([O-])/C=C/c1ccsc1", 0.104],
  ["O=C1CSC(c2cccnc2)N1c1ccc(Cl)cc1Cl (stereo not given)", 0.906],
  ["Nc1ccc([As](=O)(O)O)cc1", 0.971],
  ["NCC(CC(=O)O)c1ccc(Cl)s1 (stereo not given)", 0.991],
  ["CC(=O)Nc1ccc([N+](=O)[O-])cc1[N+](=O)[O-]", 0.174],
  ["O=c1c(Cl)c(-n2cccn2)cnn1-c1ccc(Cl)cc1Cl", 0.823]
]}

### Prompt Give the measured normalized growth of CCCCCCCCCCCCCCCC(=O)OCC(O)[C@H]1OC(=O)C(O)=C1O (stereo not given in full) .
### Response 0.823

====

The following compounds are shown together with reported normalized growth values.
# Protocol notes: chemical genetic growth profiling, strain panel (AID 1159580)
# Condition parameters: S. cerevisiae deletion strains, growth OD, locus YPL256C, strain CLN2, hits give low values
The whole screen tested about 5,500 compounds, of which about 2,000 (36%) were called active. About 18% were inconclusive and are not listed. The list shows a part of the results.
Respond with the number and no other words.

Answered cases to consult:
{"columns": ["Compound", "normalized growth"],
 "data": [
  ["Oc1c(I)cc(I)c2cccnc12", 0.15],
  ["Nc1ccc(C(=O)NCC(=O)O)cc1", 0.936],
  ["CC(=O)Nc1ccc(S(=O)(=O)Nc2ccc([N+](=O)[O-])cc2)cc1", 0.989],
  ["N#CCC(=O)NNC(=S)Nc1ccc(Cl)c(Cl)c1", 0.956],
  ["CSc1ccc(/C=C/[N+](=O)[O-])cc1", 0.17],
  ["C/C=C/c1ccc2c(c1)OCO2", 0.962],
  ["FC(F)(F)c1cccc(NNC(=S)Nc2ccccc2)c1", 0.848],
  ["Cc1cc(Cl)ccc1NC(=S)NNC(=S)Nc1ccc(F)cc1", 0.904],
  ["COC(=O)C[C@H]1C(C)(C)C(=O)[C@@H]2CC3=C4CC(=O)O[C@@H](c5ccoc5)[C@]4(C)CCC3[C@@]1(C)C2=O (stereo not given in full)", 0.97],
  ["O=C1C=CC2=C3c4cc(O)c(O)cc4CC3(O)COC2=C1O (stereo not given)", 1.05]
]}

### Prompt Which measured normalized growth value corresponds to "CN/C(=C\[N+](=O)[O-])NCCSCc1ccc(CN(C)C)o1" ?
### Response 0.968

### Prompt Would you kindly share the measured normalized growth for "O=C(NC(=S)Nc1cccc(C(F)(F)F)c1)c1ccc2nonc2c1" ?
### Response 0.831

====

# Protocol notes: chemical genetic growth profiling, strain panel (AID 1159580);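 further: tested at 20 µM; growth read once vehicle control cultures reached saturation at 30 °C; 1 = growth at the plate median or of vehicle wells; lower values mean less growth of the strain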
# Condition parameters: S. cerevisiae deletion strains, growth OD, locus YOR184W, strain ser1
Screen size: about 5,500 compounds; about 2,000 (36%) were called active. Not shown: some 18% with an inconclusive outcome. Rule as the data show it: active = normalized growth mostly below about 0.91 (no sharp cut-off); inconclusive = no clear call, values can overlap the other calls; inactive = mostly above about 0.92. Some of the results follow.
I would appreciate it if you answered using one of these outcomes: True for active, False for inactive

Some solved cases for reference:
{"columns": ["Compound", "Assigned label"],
 "data": [
  ["Cc1ccc2cc3c(ccc4ccccc43)c3c2c1CC3", "True"],
  ["Nc1nc2c(ncn2C2C[C@H](O)[C@@H](CO)O2)c(=O)[nH]1 (stereo not given in full)", "False"],
  ["CC1(C)C(O)CC(O)C2(C)C1CC(=O)C1(C)C2CCC2(C)C(C(=O)O)OC(=O)C3OC321 (stereo not given)", "False"]
]}

### Prompt GET /call?item= "c1ccc2c(c1)cc1ccc3cccc4ccc2c1c34" returns the recorded outcome of this test.
### Response False

### Prompt # fetch the recorded call for C=CC(C1=CC(=O)C(OC)=CC1=O)c1ccc(O)cc1 (stereo not given) here
### Response False

### Prompt Hi team, can someone confirm the assay call for "O=C(O)CF" ?
### Response True

### Prompt For this compound, state the assay outcome: "O=C(O)c1cccnc1Nc1cccc(C(F)(F)F)c1"
### Response False

====

# Protocol notes: chemical genetic growth profiling, strain panel (AID 1159580);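 further: tested at 20 µM; growth read once vehicle control cultures reached saturation at 30 °C; 1 = growth at the plate median or of vehicle wells; lower values mean less growth of the strain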
# Condition parameters: S. cerevisiae deletion strains, growth OD, locus YDL040C, strain nat1
In all, about 5,500 compounds went through this assay and about 2,000 (36%) were called active. Roughly 18% stayed inconclusive and do not appear here. Cut-off read from the data, not from the text of the source: active = normalized growth mostly below about 0.91 (no sharp cut-off); inconclusive = no clear call, values can overlap the other calls; inactive = mostly above about 0.92. This is one part of the list.
Pick one: active, inactive

# count of solved cases: 2
{"columns": ["Compound", "Assigned label"],
 "data": [
  ["NC(=NCCC[C@H](N)C(=O)O)NC(CCC(=O)O)C(=O)O (stereo partly drawn)", "inactive"],
  ["Nc1ncnc2c1ncn2C1C[C@H](O)[C@@H](CO)O1 (stereo partly drawn)", "inactive"]
]}

Turning to the following compound.
### Prompt Test call for this compound, please: "C1CNCCN1"
### Response inactive

====

# Protocol notes: chemical genetic growth profiling, strain panel (AID 1159580);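 further: tested at 20 µM; growth read once vehicle control cultures reached saturation at 30 °C; 1 = growth at the plate median or of vehicle wells; lower values mean less growth of the strain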
# Condition parameters: S. cerevisiae deletion strains, growth OD, locus YLR384C, strain iki3
In all, about 5,500 compounds went through this assay and about 2,000 (36%) were called active. Inconclusive results (about 18%) are left out. Cut-off read from the data, not from the text of the source: active = normalized growth mostly below about 0.91 (no sharp cut-off); inconclusive = no clear call, values can overlap the other calls; inactive = mostly above about 0.92. This is one part of the list.
Pick one and only one: 1 (yes) for active, 0 (no) for inactive

Before answering, review these 5 worked examples.
{"columns": ["Molecule", "Assigned label"],
 "data": [
  ["CCOP(=S)(OCC)SCn1c(=O)oc2cc(Cl)ccc21", "0 (no)"],
  ["Cc1ccc(/C(=C\\CN2CCCC2)c2ccccn2)cc1", "0 (no)"],
  ["Nc1ccc(C(=O)NCC(=O)O)cc1", "0 (no)"],
  ["Oc1c(I)cc(Cl)c2cccnc12", "1 (yes)"],
  ["Nc1ncnc2c1ncn2C1C[C@H](O)[C@@H](CO)O1 (some centres not stated)", "0 (no)"]
]}

### Prompt State the result this test recorded for "Oc1c(Br)cc(Br)c2cccnc12" .
### Response 1 (yes)

### Prompt For O=c1[nH]c(=O)n(C2C[C@@H](O)[C@@H](CO)O2)cc1F (some centres not stated) , which call appears in the assay record?
### Response 0 (no)
